Listed below: protein stability index values for each entry.
System: Saccharomyces cerevisiae
Assay: protein stability index of tFT-peptide fusion (C-terminal peptide) (PSI (0-1 scale)); higher = more stable (slower turnover)
Conditions: genetic background: wild type; temperature: 30 C
value_kind: protein stability index

[
  {
    "sequence_content": "WSHVPLAPLSCF",
    "observed_value": 0.457
  },
  {
    "sequence_content": "GFTVVGCSYVTT",
    "observed_value": 0.557
  },
  {
    "sequence_content": "STPSPSPTGLSR",
    "observed_value": 0.597
  },
  {
    "sequence_content": "QYASPSISTLPV",
    "observed_value": 0.726
  },
  {
    "sequence_content": "LFPLLCLLLPSL",
    "observed_value": 0.538
  },
  {
    "sequence_content": "VSFWSVFSWLSG",
    "observed_value": 0.665
  },
  {
    "sequence_content": "EKHLKKEIQIKK",
    "observed_value": 0.76
  },
  {
    "sequence_content": "WRGEMGGSGGQA",
    "observed_value": 0.713
  },
  {
    "sequence_content": "LCSPKPASAPGH",
    "observed_value": 0.668
  },
  {
    "sequence_content": "CSLPPSPAVPPP",
    "observed_value": 0.644
  }
]

* * *

Test system: Saccharomyces cerevisiae
Assay: protein stability index of tFT-peptide fusion in deletion strain of DAS1 (PSI (0-1 scale)); higher = more stable (slower turnover)
# binarize protein stability index: threshold 0.6 inclusive, high side Met, low side Not met

[
  {
    "sequence_content": "LKILRCKMNHQN",
    "tested_on": "Saccharomyces cerevisiae",
    "label": "Met"
  },
  {
    "sequence_content": "LVVMLSCVACIN",
    "tested_on": "Saccharomyces cerevisiae",
    "label": "Not met"
  },
  {
    "sequence_content": "LFILRQKMNHQN",
    "tested_on": "Saccharomyces cerevisiae",
    "label": "Met"
  },
  {
    "sequence_content": "VRGAVGGWRLVE",
    "tested_on": "Saccharomyces cerevisiae",
    "label": "Met"
  },
  {
    "sequence_content": "CTSCGMKFRTNN",
    "tested_on": "Saccharomyces cerevisiae",
    "label": "Met"
  },
  {
    "sequence_content": "PSLAASFWRVVGS",
    "tested_on": "Saccharomyces cerevisiae",
    "label": "Met"
  },
  {
    "sequence_content": "ARWRVGRWRGAS",
    "tested_on": "Saccharomyces cerevisiae",
    "label": "Met"
  },
  {
    "sequence_content": "VRGAVGGWRLVGH",
    "tested_on": "Saccharomyces cerevisiae",
    "label": "Met"
  },
  {
    "sequence_content": "PSLAMSFWRVVG",
    "tested_on": "Saccharomyces cerevisiae",
    "label": "Met"
  },
  {
    "sequence_content": "GRGAVGGWRLVG",
    "tested_on": "Saccharomyces cerevisiae",
    "label": "Met"
  },
  {
    "sequence_content": "ARWRVGLWRGASC",
    "tested_on": "Saccharomyces cerevisiae",
    "label": "Met"
  },
  {
    "sequence_content": "FSMRLTFRYWVN",
    "tested_on": "Saccharomyces cerevisiae",
    "label": "Not met"
  },
  {
    "sequence_content": "CTSCGFKFRTNN",
    "tested_on": "Saccharomyces cerevisiae",
    "label": "Met"
  },
  {
    "sequence_content": "FSMGWTFRYWVN",
    "tested_on": "Saccharomyces cerevisiae",
    "label": "Not met"
  },
  {
    "sequence_content": "RLIQALPVQFLN",
    "tested_on": "Saccharomyces cerevisiae",
    "label": "Met"
  },
  {
    "sequence_content": "KKHKKGQKQKRN",
    "tested_on": "Saccharomyces cerevisiae",
    "label": "Not met"
  },
  {
    "sequence_content": "VRGAVGGWRLVM",
    "tested_on": "Saccharomyces cerevisiae",
    "label": "Met"
  }
]

* * *

System: Saccharomyces cerevisiae
Assay: protein stability index of tFT-peptide fusion (C-terminal peptide) (PSI (0-1 scale)); higher = more stable (slower turnover)
Settings: genetic background: wild type; temperature: 30 C

[
  {
    "sequence_content": "GYRRCCHFLFTL",
    "tested_on": "Saccharomyces cerevisiae",
    "protein stability index": 0.423
  },
  {
    "sequence_content": "GRGCRGKDWWLW",
    "tested_on": "Saccharomyces cerevisiae",
    "protein stability index": 0.74
  },
  {
    "sequence_content": "GVWLWVLGACRR",
    "tested_on": "Saccharomyces cerevisiae",
    "protein stability index": 0.657
  },
  {
    "sequence_content": "SRLSPPFPLFSL",
    "tested_on": "Saccharomyces cerevisiae",
    "protein stability index": 0.505
  },
  {
    "sequence_content": "VFNLSIPLPSFP",
    "tested_on": "Saccharomyces cerevisiae",
    "protein stability index": 0.707
  },
  {
    "sequence_content": "VTSVARVVLHLL",
    "tested_on": "Saccharomyces cerevisiae",
    "protein stability index": 0.307
  },
  {
    "sequence_content": "RCTFSFSFPFVL",
    "tested_on": "Saccharomyces cerevisiae",
    "protein stability index": 0.596
  },
  {
    "sequence_content": "RITMNMHSLIIP",
    "tested_on": "Saccharomyces cerevisiae",
    "protein stability index": 0.711
  },
  {
    "sequence_content": "PHSVPPLTFPTS",
    "tested_on": "Saccharomyces cerevisiae",
    "protein stability index": 0.689
  },
  {
    "sequence_content": "PLSPSFPPLSPP",
    "tested_on": "Saccharomyces cerevisiae",
    "protein stability index": 0.78
  },
  {
    "sequence_content": "PSHGSRPSPPLR",
    "tested_on": "Saccharomyces cerevisiae",
    "protein stability index": 0.676
  },
  {
    "sequence_content": "CFPPSLVPRPTY",
    "tested_on": "Saccharomyces cerevisiae",
    "protein stability index": 0.673
  },
  {
    "sequence_content": "VERDARGESCSR",
    "tested_on": "Saccharomyces cerevisiae",
    "protein stability index": 0.747
  },
  {
    "sequence_content": "SRERRPKVFILR",
    "tested_on": "Saccharomyces cerevisiae",
    "protein stability index": 0.669
  },
  {
    "sequence_content": "RLEGNRGPWRQD",
    "tested_on": "Saccharomyces cerevisiae",
    "protein stability index": 0.786
  },
  {
    "sequence_content": "FFYGLHSHCAIP",
    "tested_on": "Saccharomyces cerevisiae",
    "protein stability index": 0.717
  },
  {
    "sequence_content": "RSTGGHGSQAGR",
    "tested_on": "Saccharomyces cerevisiae",
    "protein stability index": 0.711
  },
  {
    "sequence_content": "GQPLLVCMSGFW",
    "tested_on": "Saccharomyces cerevisiae",
    "protein stability index": 0.684
  },
  {
    "sequence_content": "TERPPRRPKSQG",
    "tested_on": "Saccharomyces cerevisiae",
    "protein stability index": 0.715
  }
]

* * *

Test system: Saccharomyces cerevisiae
Assay: protein stability index of tFT-peptide fusion (C-terminal peptide) (PSI (0-1 scale)); higher = more stable (slower turnover)
Details: genetic background: wild type; temperature: 30 C

[
  {
    "sequence_content": "NIIYKRKKGRRW",
    "protein stability index": 0.689
  },
  {
    "sequence_content": "HAPALSSTPRLL",
    "protein stability index": 0.684
  },
  {
    "sequence_content": "ILNNSDRAYTIQ",
    "protein stability index": 0.731
  },
  {
    "sequence_content": "KSKGVRITKVSN",
    "protein stability index": 0.783
  },
  {
    "sequence_content": "RFRYFSPLSTTS",
    "protein stability index": 0.671
  },
  {
    "sequence_content": "NPLHGNIRLSPL",
    "protein stability index": 0.685
  },
  {
    "sequence_content": "GGGRGGGEWVGG",
    "protein stability index": 0.651
  },
  {
    "sequence_content": "GCRLVEGAVRLE",
    "protein stability index": 0.686
  },
  {
    "sequence_content": "EEWGSLEWTAGR",
    "protein stability index": 0.778
  },
  {
    "sequence_content": "FFVWGVFLGVSW",
    "protein stability index": 0.358
  },
  {
    "sequence_content": "EKPIPFCSSVAS",
    "protein stability index": 0.713
  },
  {
    "sequence_content": "LHSRLPPCRRHV",
    "protein stability index": 0.674
  },
  {
    "sequence_content": "APTPACTRPSVA",
    "protein stability index": 0.693
  },
  {
    "sequence_content": "TWVGPIRISNQQ",
    "protein stability index": 0.639
  },
  {
    "sequence_content": "PSPSFLVFATSY",
    "protein stability index": 0.628
  },
  {
    "sequence_content": "YNSRKQKKREKK",
    "protein stability index": 0.706
  },
  {
    "sequence_content": "EEVAISFFFLSL",
    "protein stability index": 0.468
  },
  {
    "sequence_content": "DPVGFSEMYLRV",
    "protein stability index": 0.705
  },
  {
    "sequence_content": "PSSPSPLRPPSP",
    "protein stability index": 0.666
  },
  {
    "sequence_content": "CGVWHGFFGLWL",
    "protein stability index": 0.657
  },
  {
    "sequence_content": "RRIVAPYSGEAA",
    "protein stability index": 0.774
  },
  {
    "sequence_content": "GERLGEWGGGVG",
    "protein stability index": 0.669
  },
  {
    "sequence_content": "GWTVCVFGSCGV",
    "protein stability index": 0.692
  },
  {
    "sequence_content": "RRGWRRGGLGNG",
    "protein stability index": 0.683
  },
  {
    "sequence_content": "LLSLFLLSPSVI",
    "protein stability index": 0.681
  },
  {
    "sequence_content": "SSGSLITIASPF",
    "protein stability index": 0.745
  },
  {
    "sequence_content": "RLDMKLAIDISR",
    "protein stability index": 0.763
  },
  {
    "sequence_content": "WQGLGGARGCML",
    "protein stability index": 0.691
  },
  {
    "sequence_content": "VVFGLESCDWRG",
    "protein stability index": 0.669
  },
  {
    "sequence_content": "VGGGLSLGGVWW",
    "protein stability index": 0.691
  },
  {
    "sequence_content": "PTSSPAPPLFAF",
    "protein stability index": 0.67
  },
  {
    "sequence_content": "FTPLFSPVLLLP",
    "protein stability index": 0.72
  },
  {
    "sequence_content": "PSSPPLPPPSPP",
    "protein stability index": 0.644
  },
  {
    "sequence_content": "LGSGGLMEPWCG",
    "protein stability index": 0.644
  },
  {
    "sequence_content": "TIGPSYLLPDSF",
    "protein stability index": 0.784
  },
  {
    "sequence_content": "VNTLCCVFRCNL",
    "protein stability index": 0.805
  },
  {
    "sequence_content": "TRCRLRETISRR",
    "protein stability index": 0.651
  },
  {
    "sequence_content": "VQTIKPVPSGLR",
    "protein stability index": 0.622
  },
  {
    "sequence_content": "SLPLPSPRPILR",
    "protein stability index": 0.64
  },
  {
    "sequence_content": "VVSLGLGPSLRV",
    "protein stability index": 0.709
  },
  {
    "sequence_content": "FLLFLSSAPPAT",
    "protein stability index": 0.655
  }
]
